Target: Na+/H^+ exchanger of rabbit erythrocytes (Oryctolagus cuniculus)
Construct: determine the Na^+ influx into the erythrocytes via Na^+ /H^+ exchange by flame photometry; endogenous in cells
Sequence (P23791 whole entry): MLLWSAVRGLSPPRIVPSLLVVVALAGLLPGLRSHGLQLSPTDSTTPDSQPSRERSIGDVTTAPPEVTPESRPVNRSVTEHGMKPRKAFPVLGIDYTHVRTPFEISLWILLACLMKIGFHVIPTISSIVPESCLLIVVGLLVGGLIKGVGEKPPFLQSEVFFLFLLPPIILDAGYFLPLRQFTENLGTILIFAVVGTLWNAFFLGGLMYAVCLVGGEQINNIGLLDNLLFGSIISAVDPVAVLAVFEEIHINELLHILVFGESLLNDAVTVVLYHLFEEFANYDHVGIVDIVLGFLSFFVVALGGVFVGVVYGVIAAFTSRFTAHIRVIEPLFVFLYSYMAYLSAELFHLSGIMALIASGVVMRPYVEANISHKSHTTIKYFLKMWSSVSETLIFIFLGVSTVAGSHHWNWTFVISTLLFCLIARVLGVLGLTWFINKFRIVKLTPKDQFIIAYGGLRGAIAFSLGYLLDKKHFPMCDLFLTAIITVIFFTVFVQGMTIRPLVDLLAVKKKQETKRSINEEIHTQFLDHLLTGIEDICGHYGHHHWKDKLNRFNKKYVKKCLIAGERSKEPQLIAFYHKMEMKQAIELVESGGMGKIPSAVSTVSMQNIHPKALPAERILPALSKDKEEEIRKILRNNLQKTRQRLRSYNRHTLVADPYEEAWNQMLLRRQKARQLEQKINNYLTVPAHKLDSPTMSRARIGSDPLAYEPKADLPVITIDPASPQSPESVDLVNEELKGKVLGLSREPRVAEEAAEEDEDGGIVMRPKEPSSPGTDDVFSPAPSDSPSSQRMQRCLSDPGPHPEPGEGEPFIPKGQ
Test: Inhibition of the Na+/H+ exchanger of rabbit erythrocytes (amiloride-sensitive Na+ influx, flame photometry)
Conditions: cholesterol diet 2% six weeks, pH 7.4, 37° C
Where a name gives a salt, the structure may show the parent alone.
Measured Parameter: pIC50
// pIC50 is dimensionless: -log10 of concentration (M)

Given item NC(N)=NC(=O)c1ccc(Oc2ccc(CC(N)C(=O)O)cc2)c(C(F)(F)F)c1 (stereo not drawn) [Example 4, dihydrochloride] , the value recorded as its pIC50 is 7.59

Looking up CC(C)(C)OC(=O)N[C@@H](Cc1ccc(Oc2ccc(C(=O)N=C(N)N)cc2S(C)(=O)=O)cc1)C(=O)O [Example 1] , I see its pIC50 listed as 6.37

So for CS(=O)(=O)c1cc(C(=O)N=C(N)N)ccc1Oc1ccc(C[C@H](N)C(=O)O)cc1 [Example 2] , the logged pIC50 turned out to be 6.00

# credit: patent US5631293A
